# RUN_CONDITIONS: buffer; pH 7.4; 200.0 µM
Each entry below carries its recorded solubility kinetic.
Note: unit µg/mL is implicit; provide only the numeric part.

[
  {
    "MOLECULE": "COC(=O)C(Cc1ccccc1)NC(=O)CC(C)CC(=O)Nc1ccc(C)cc1 (stereo unspecified)",
    "QUANTITY_UNIT": "µg/mL",
    "solubility kinetic": 14.3
  },
  {
    "MOLECULE": "CCc1ccc2nc(SCC(=O)NCC3CCCO3)c(C#N)cc2c1 (stereo unspecified)",
    "QUANTITY_UNIT": "µg/mL",
    "solubility kinetic": 1.9
  },
  {
    "MOLECULE": "CCOP(=O)(OCC)C(Cc1ccccc1)NC(C)=O (stereo unspecified)",
    "QUANTITY_UNIT": "µg/mL",
    "solubility kinetic": 43.5
  },
  {
    "MOLECULE": "CN(c1cccc2cccnc12)S(=O)(=O)c1ccccc1",
    "QUANTITY_UNIT": "µg/mL",
    "solubility kinetic": 40.7
  }
]

Req: Could you share which solubility kinetic value was measured for COc1ccc(OCCN2C(=O)c3ccccc3C2=O)c([N+](=O)[O-])c1 ?
Resp: 1

----------
# RUN_CONDITIONS: buffer; pH 7.4; 200.0 µM
Each entry below carries its recorded solubility kinetic.
Note: unit µg/mL is implicit; provide only the numeric part.

These recorded examples may help you get a feel for the data.
[
  {
    "COMPOUND": "CCc1cccc(NC(=O)C(NC(=O)C2CCCCC2)C(C)C)c1 (stereo unspecified)",
    "QUANTITY_UNIT": "µg/mL",
    "solubility kinetic": 0.6
  },
  {
    "COMPOUND": "O=S(=O)(c1cnc(Cl)c(Cl)c1)N1CCN(c2ncccn2)CC1",
    "QUANTITY_UNIT": "µg/mL",
    "solubility kinetic": 0.4
  },
  {
    "COMPOUND": "CC(=O)Nc1nc(C)c(Oc2ccc(C)cc2)c(=O)[nH]1",
    "QUANTITY_UNIT": "µg/mL",
    "solubility kinetic": 39.6
  },
  {
    "COMPOUND": "O=C(COC(=O)c1cccc(C(F)(F)F)c1)NC(=O)NC1CCCC1",
    "QUANTITY_UNIT": "µg/mL",
    "solubility kinetic": 5.2
  },
  {
    "COMPOUND": "O=[N+]([O-])/C=C\\c1ccc(N2CCOCC2)cc1",
    "QUANTITY_UNIT": "µg/mL",
    "solubility kinetic": 16.5
  }
]

Req: Could you share which solubility kinetic value was measured for Cc1c(Cl)cccc1NC(=O)CC1Oc2ccccc2NC1=O (stereo unspecified) ?
Resp: 5.7

Req: Now try CCOC(=O)C1CCN(C(=O)COC(=O)/C=C/c2cccc(OC)c2OC)CC1 .
Resp: 60.5

----------
# RUN_CONDITIONS: buffer; pH 7.4; 200.0 µM
Would you mind labelling by solubility kinetic? At or over 20 µg/mL is Fulfilled, under is Not fulfilled.

Req: Does solubility kinetic meet or surpass 20 µg/mL for O=C(NC1=NCCS1)c1ccccc1 ?
Resp: Fulfilled

Req: Now try Cc1ccc2nc(-c3ccccc3)c(CN3CCOCC3)n2c1 .
Resp: Fulfilled

Req: Now try CCc1ccc2nc(N3CCN(C(=O)C(C)(C)C)CC3)sc2c1 .
Resp: Not fulfilled

Req: Now try Cc1ccc2c(c1)N(CC(=O)N1CCC(O)CC1)C(=O)CO2 .
Resp: Fulfilled

Req: Now try COc1cc(C(=O)N2CCC(C(N)=O)CC2)ccc1OCc1c(C)noc1C .
Resp: Fulfilled

Req: Now try CC(C)(CNC(=O)c1cccc(F)c1)CNC(=O)c1cccc(F)c1 .
Resp: Not fulfilled

Req: Now try CC(C)c1cc(=O)[nH]c(N2CCN(Cc3ccc4c(c3)OCO4)CC2)n1 .
Resp: Fulfilled

Req: Now try Cc1ccc(C(=O)Nc2ccc(N3CCN(C)CC3)cc2)cc1 .
Resp: Fulfilled

Req: Now try CC(C)(C)c1ccc(CCC2OCC(CN3CCOCC3)O2)cc1 (configuration not stated) .
Resp: Fulfilled

Req: Now try CCN1CCCC1CNC(=O)C(=O)NCc1ccccc1 (configuration not stated) .
Resp: Fulfilled

Req: Now try Fc1ccccc1N1CCN(c2ncnc3nc[nH]c23)CC1 .
Resp: Not fulfilled

Req: Now try S=c1[nH]c(-c2ccccc2)cn1-c1ccccc1 .
Resp: Not fulfilled

----------
# RUN_CONDITIONS: buffer; pH 7.4; 200.0 µM
Would you mind labelling by solubility kinetic? At or over 40 µg/mL is Satisfied, under is Not satisfied.

Solved cases below.
[
  {
    "COMPOUND": "Cc1cnc(C(=O)Oc2c(C)ccc(C)c2C)cn1",
    "CATEGORY_LABEL": "Not satisfied"
  },
  {
    "COMPOUND": "CCn1c(SCC(=O)OC(C)C)nnc1-c1ccccc1OC",
    "CATEGORY_LABEL": "Satisfied"
  },
  {
    "COMPOUND": "CC(C)CCN1CCN(C/C=C/c2ccco2)CC1CCO (stereo not given)",
    "CATEGORY_LABEL": "Satisfied"
  },
  {
    "COMPOUND": "CC(OC(=O)C1CC1)C(=O)Nc1cc(C(F)(F)F)ccc1Cl (stereo not given)",
    "CATEGORY_LABEL": "Not satisfied"
  },
  {
    "COMPOUND": "O=C(C1CCC1)N1CCN(c2ccnc3cc(Cl)ccc23)CC1",
    "CATEGORY_LABEL": "Satisfied"
  },
  {
    "COMPOUND": "O=C1NC(c2ccccc2O)Nc2ccccc21 (stereo not given)",
    "CATEGORY_LABEL": "Not satisfied"
  }
]

Req: Does solubility kinetic meet or surpass 40 µg/mL for Cn1c(=O)c2c(nc(Oc3ccccc3N)n2C)n(C)c1=O ?
Resp: Satisfied

Req: Now try N#Cc1ncn(-c2ccc(Oc3ccccc3)cc2)c1N .
Resp: Not satisfied

Req: Now try COc1cc(NC(=S)N(C)C)c(OC)cc1Cl .
Resp: Satisfied

Req: Now try COc1ccc2oc(=O)c(C(=O)Nc3cccc(C(C)=O)c3)cc2c1 .
Resp: Not satisfied

Req: Now try Cc1ccc(NC(=O)COC(=O)C2CCC(=O)N2)c([N+](=O)[O-])c1 (stereo not given) .
Resp: Satisfied

Req: Now try N/C(=N/O)c1nc(N2CCCC2)nc(N2CCCC2)n1 .
Resp: Satisfied

Req: Now try Cc1ccsc1C(=O)OCC(=O)N1CC(C)CC(C)C1 (stereo not given) .
Resp: Satisfied

Req: Now try Cc1ccnc(NC2(C(F)(F)F)N=C3SCCN3C2=O)c1 (stereo not given) .
Resp: Satisfied

----------
# RUN_CONDITIONS: buffer; pH 7.4; 200.0 µM
Each entry below carries its recorded solubility kinetic.
Note: unit µg/mL is implicit; provide only the numeric part.

These recorded examples may help you get a feel for the data.
[
  {
    "COMPOUND": "CN(C)/C=C/C(=O)c1ccc2noc(-c3ccccc3)c2c1",
    "solubility kinetic, µg/mL": 15.1
  },
  {
    "COMPOUND": "Cn1c(CNC(=O)C2CCCCC2)cc2ccccc21",
    "solubility kinetic, µg/mL": 1.7
  },
  {
    "COMPOUND": "Cc1ccc2c(c1)C(=C(C#N)C#N)C(=O)N2CCN1CCOCC1",
    "solubility kinetic, µg/mL": 48.3
  },
  {
    "COMPOUND": "CCOc1ccc(CN(C)C(=O)c2ccc3ccccc3n2)cc1",
    "solubility kinetic, µg/mL": 34.7
  },
  {
    "COMPOUND": "O=C(Cn1cc([N+](=O)[O-])ccc1=O)N1CCc2ccccc21",
    "solubility kinetic, µg/mL": 11.3
  }
]

Req: Could you share which solubility kinetic value was measured for O=C(O)CCn1c(-c2ccccc2)cc2ccccc21 ?
Resp: 35.7

Req: Now try Cc1ccc(Nc2cc(C)c(O)c(C)c2)cc1 .
Resp: 10.5

Req: Now try CC1CCCCN1C(=O)COC(=O)/C=C/c1ccc2ccccc2n1 (configuration not stated) .
Resp: 25.1

----------
# RUN_CONDITIONS: buffer; pH 7.4; 200.0 µM
ASSAY_METRIC: solubility kinetic (µg/mL)
Note: unit µg/mL is implicit; provide only the numeric part.

These recorded examples may help you get a feel for the data.
[
  {
    "COMPOUND": "Cc1csc(=O)n1CC(=O)Nc1ccc(Cl)cc1F",
    "QUANTITY_UNIT": "µg/mL",
    "solubility kinetic": 9
  },
  {
    "COMPOUND": "CC(C)C(NC(=O)c1ccc(Cl)cc1Cl)C(=O)N1CCN(S(=O)(=O)c2ccccc2)CC1 (centres undefined)",
    "QUANTITY_UNIT": "µg/mL",
    "solubility kinetic": 2
  },
  {
    "COMPOUND": "O=C(NCc1cccnc1)C(=O)Nc1ccc2c(c1)OCO2",
    "QUANTITY_UNIT": "µg/mL",
    "solubility kinetic": 42.7
  },
  {
    "COMPOUND": "Cc1ccc(CNC(=O)Nc2ccccc2)c(C)c1",
    "QUANTITY_UNIT": "µg/mL",
    "solubility kinetic": 0.7
  },
  {
    "COMPOUND": "CS(=O)(=O)c1ccc(Cl)c(NC(=O)COC(=O)c2ccc(S(=O)(=O)N3CCCC3)cc2)c1",
    "QUANTITY_UNIT": "µg/mL",
    "solubility kinetic": 10.5
  }
]

Req: Could you share which solubility kinetic value was measured for CN(Cc1ccccc1)C(=O)COc1cc(Cl)ccc1Cl ?
Resp: 24.1

Req: Now try COc1ccc(CNC(=O)COC(=O)c2ccc(C(=O)c3ccccc3)cc2)cc1 .
Resp: 7.4

Req: Now try O=C(c1ccccc1)N1CCN(C(=O)C2CC2)CC1 .
Resp: 38.2

Req: Now try O=C(OCC(O)COc1ccccc1)c1ccc([N+](=O)[O-])cc1 (centres undefined) .
Resp: 43.7

Req: Now try Oc1ccc2oc3c(c2c1C=NCc1ccncc1)CCCC3 .
Resp: 16.9

Req: Now try Cc1ccc(C)c(NC(=O)C(C)N2C(=O)c3ccccc3C2=O)c1 (centres undefined) .
Resp: 21

Req: Now try CCc1nonc1NC(=O)c1oc2c(C)c(C)ccc2c1C .
Resp: 0.6

Req: Now try CCOC(=O)C(=O)N1CCC(Cc2ccccc2)CC1 .
Resp: 35.8

Req: Now try Cc1ccc(Cl)c(OCC(=O)N2CCc3ccccc3C2)c1 .
Resp: 6.2

Reference for the values: PubChem BioAssay AID1996
